system: PMA-induced ear edema; assay: Acute PMA-induced ear edema mouse model; assay type: in vivo; conditions: 30 mpk p.o.
READOUT_TYPE: % Inhibition (%)

molecule="NC(=O)c1ccc(N2CCN(C3c4ccccc4-c4ccccc43)CC2)c(NC(=O)Nc2ccccc2)c1 [Cpd 9]" assay_result=44
molecule="O=C(Nc1ccccc1)Nc1cc(C(=O)N2CCNCC2)ccc1N1CCN(C(c2ccccc2)c2ccccc2)CC1 [Cpd 40]" assay_result=9
molecule="NC(=O)c1ccc(N2CCN(C(c3ccc(F)cc3)c3ccc(F)cc3)CC2)c(NC(=S)NCc2ccccc2)c1 [Cpd 21]" assay_result=31
molecule="O=C(Nc1cc(C(=O)N2CCNCC2)ccc1N1CCN(C(c2ccccc2)c2ccccc2)CC1)NC1CCCCC1 [Cpd 38]" assay_result=0

----------
Measured pIC50 accompanies every entry in the list below.
target: human PLC-β2 (Homo sapiens, UniProt Q00722); test: PLC assay using FlashPlates (96-well, immobilized [3H]PIP2 substrate); settings: purified recombinant human PLC-β2 or cytosolic human PLC-β2; hydrolysis of [3H]PIP2
Sequence (Q00722 whole entry): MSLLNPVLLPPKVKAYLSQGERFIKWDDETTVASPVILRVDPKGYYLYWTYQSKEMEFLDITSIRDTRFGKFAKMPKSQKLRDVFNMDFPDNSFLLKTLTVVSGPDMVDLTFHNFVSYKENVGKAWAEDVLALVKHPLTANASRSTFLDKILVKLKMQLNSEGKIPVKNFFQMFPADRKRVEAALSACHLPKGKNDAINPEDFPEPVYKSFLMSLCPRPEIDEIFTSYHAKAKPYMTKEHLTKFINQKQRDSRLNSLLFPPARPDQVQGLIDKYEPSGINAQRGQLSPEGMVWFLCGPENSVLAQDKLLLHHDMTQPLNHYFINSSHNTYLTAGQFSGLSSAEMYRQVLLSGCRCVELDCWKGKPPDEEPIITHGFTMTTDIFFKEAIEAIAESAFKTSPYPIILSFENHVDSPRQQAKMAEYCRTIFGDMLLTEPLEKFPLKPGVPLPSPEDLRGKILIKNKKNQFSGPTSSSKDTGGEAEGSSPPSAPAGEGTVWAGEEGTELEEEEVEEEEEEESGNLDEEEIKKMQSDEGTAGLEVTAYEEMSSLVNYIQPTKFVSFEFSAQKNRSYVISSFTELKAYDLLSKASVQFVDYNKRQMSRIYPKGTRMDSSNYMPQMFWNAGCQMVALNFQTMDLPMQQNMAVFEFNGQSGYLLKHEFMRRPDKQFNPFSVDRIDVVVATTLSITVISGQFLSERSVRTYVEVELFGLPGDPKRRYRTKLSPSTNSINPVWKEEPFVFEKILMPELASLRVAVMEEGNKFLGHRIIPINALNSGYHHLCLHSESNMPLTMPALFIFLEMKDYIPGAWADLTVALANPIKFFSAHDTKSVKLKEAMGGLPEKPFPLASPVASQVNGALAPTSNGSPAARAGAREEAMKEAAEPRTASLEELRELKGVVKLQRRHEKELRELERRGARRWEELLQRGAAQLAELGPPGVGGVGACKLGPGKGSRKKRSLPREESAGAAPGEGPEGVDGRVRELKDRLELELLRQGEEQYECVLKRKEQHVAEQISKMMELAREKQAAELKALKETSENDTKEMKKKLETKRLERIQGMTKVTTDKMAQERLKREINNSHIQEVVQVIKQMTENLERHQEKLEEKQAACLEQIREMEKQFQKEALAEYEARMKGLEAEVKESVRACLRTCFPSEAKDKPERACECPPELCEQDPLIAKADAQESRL
pIC50: −log10 of the molar value.
READOUT_TYPE: pIC50

compound="CC(C)C[C@H](NC(=O)c1ccc(N2CCN(C(c3ccccc3)c3ccccc3)CC2)c(NC(=O)Nc2ccccc2)c1)C(=O)O [Cpd 32]" comparison_operator== assay_result=5.41
compound="NC(=O)c1ccc(N2CCN(Cc3ccccc3)CC2)c(NC(=O)Nc2ccccc2)c1 [Cpd 2]" comparison_operator=< assay_result=4.60
compound="COc1ccc(NC(=O)Nc2cc(C(=O)N3CCNCC3)ccc2N2CCN(C(c3ccccc3)c3ccccc3)CC2)cc1 [Cpd 43]" comparison_operator== assay_result=5.24
compound="O=C(Nc1ccccc1)Nc1ccc(C(=O)N2CCNCC2)cc1N1CCCN(C(c2ccc(F)cc2)c2ccc(F)cc2)CC1 [Cpd 89]" comparison_operator== assay_result=6.09
compound="NCCNC(=O)c1ccc(N2CCN(C(c3ccccc3)c3ccccc3)CC2)c(NC(=O)NC2CCCCC2)c1 [Cpd 27]" comparison_operator== assay_result=5.55
compound="CN1CCN(C(=O)c2ccc(N3CCN(C(c4ccccc4)c4ccccc4)CC3)c(NC(=O)Nc3ccccc3)c2)CC1 [Cpd 23]" comparison_operator== assay_result=5.31
compound="NC(=O)c1ccc(N2CCN(C(c3ccc(F)cc3)c3ccc(F)cc3)CC2)c(NC(=O)Nc2ccccc2)c1 [Cpd 3]" comparison_operator== assay_result=5.82
compound="NC(=O)c1ccc(N2CCCN(C(c3ccncc3)c3ccc(F)cc3)CC2)c(NC(=O)NC2CCCCC2)c1 (stereo not drawn) [Cpd 80]" comparison_operator=< assay_result=5.00
compound="C[C@H](NC(=O)Nc1cc(C(=O)N2CCNCC2)ccc1N1CCN(C(c2ccccc2)c2ccccc2)CC1)c1ccccc1 [Cpd 64]" comparison_operator=< assay_result=4.60
compound="Cc1ccc(NC(=O)Nc2cc(C(=O)N3CCNCC3)ccc2N2CCN(C(c3ccccc3)c3ccccc3)CC2)c(C)c1 [Cpd 41]" comparison_operator== assay_result=5.80
compound="NC(=O)c1ccc(N2CCN(C(c3ccccc3)c3ccccc3)CC2)c(NC(=O)Nc2ccc(F)cc2)c1 [Cpd 13]" comparison_operator== assay_result=5.89
compound="NC(=O)c1ccc(N2CCN(C(c3ccncc3)c3ccc(F)cc3)CC2)c(NC(=O)NC2CCCCC2)c1 (stereo not drawn) [Cpd 78]" comparison_operator=< assay_result=5.00
compound="COc1ccccc1N1CCN(c2ccc(C(=O)N3CCNCC3)cc2NC(=O)NC2CCCCC2)CC1 [Cpd 55]" comparison_operator=< assay_result=4.60
compound="O=C(Nc1cc(C(=O)N2CCNCC2)ccc1N1CCN(C(c2ccccc2)c2ccccc2)CC1)NC1CCCC1 [Cpd 63]" comparison_operator== assay_result=4.86
compound="COc1ccc(NC(=O)Nc2cc(C(N)=O)ccc2N2CCN(C(c3ccc(F)cc3)c3ccc(F)cc3)CC2)cc1 [Cpd 20]" comparison_operator== assay_result=5.37
compound="O=C(Nc1cc(C(=O)N2CCNCC2)ccc1N1CCN(C(c2ccccc2)c2ccc(Cl)cc2)CC1)NC1CCCCC1 (stereo not drawn) [Cpd 45]" comparison_operator== assay_result=5.66
compound="NCCNC(=O)c1ccc(N2CCN(C(c3ccccc3)c3ccccc3)CC2)c(NC(=O)Nc2ccccc2)c1 [Cpd 26]" comparison_operator== assay_result=5.72
compound="Cc1ccc(NC(=O)Nc2cc(C(N)=O)ccc2N2CCN(C(c3ccc(F)cc3)c3ccc(F)cc3)CC2)c(C)c1 [Cpd 15]" comparison_operator== assay_result=5.32
compound="CCCCNC(=O)Nc1cc(C(N)=O)ccc1N1CCN(C(c2ccccc2)c2ccccc2)CC1 [Cpd 12]" comparison_operator== assay_result=4.84
compound="COc1ccccc1NC(=O)Nc1cc(C(N)=O)ccc1N1CCN(C(c2ccc(F)cc2)c2ccc(F)cc2)CC1 [Cpd 17]" comparison_operator== assay_result=5.55
compound="NC(=O)c1ccc(N2CCN(C(c3ccccc3)c3ccccc3)CC2)c(NC(=O)NC2CCCCC2)c1 [Cpd 10]" comparison_operator== assay_result=4.85
compound="O=C(Nc1ccc(C(=O)N2CCNCC2)cc1N1CCN(C(c2ccccc2)c2ccccc2)CC1)NC1CCCCC1 [Cpd 92]" comparison_operator== assay_result=5.80
compound="NC(=O)c1ccc(N2CCN(C(c3ccc(F)cc3)c3ccc(F)cc3)CC2)c(NC(=S)Nc2ccccc2)c1 [Cpd 22]" comparison_operator== assay_result=5.92
compound="NC(=O)c1ccc(N2CCN(C(c3ccccc3)c3ccccc3)CC2)c(NC(=O)Nc2ccc([N+](=O)[O-])cc2)c1 [Cpd 5]" comparison_operator== assay_result=5.00
compound="O=C(Nc1ccccc1)Nc1cc(C(=O)N2CCNCC2)ccc1N1CCN(C(c2ccccc2)c2ccccc2)CC1 [Cpd 40]" comparison_operator== assay_result=5.80
compound="NC(=O)c1ccc(N2CCN(C(c3ccc(F)cc3)c3ccc(F)cc3)CC2)c(NC(=S)NCc2ccccc2)c1 [Cpd 21]" comparison_operator== assay_result=5.64
compound="O=C(Nc1ccccc1)Nc1cc(C(=O)N2CCNCC2)ccc1N1CCN(C(c2ccc(F)cc2)c2ccc(F)cc2)CC1 [Cpd 46]" comparison_operator== assay_result=5.77
compound="CC(NC(=O)Nc1cc(C(N)=O)ccc1N1CCN(C(c2ccc(F)cc2)c2ccc(F)cc2)CC1)c1ccccc1 (stereo not drawn) [Cpd 16]" comparison_operator== assay_result=5.22

Ref: patent US20040235855A1
